# assay target: CYP1A (Homo sapiens, UniProt P04798+P05177)
# Sequence (P04798 whole entry): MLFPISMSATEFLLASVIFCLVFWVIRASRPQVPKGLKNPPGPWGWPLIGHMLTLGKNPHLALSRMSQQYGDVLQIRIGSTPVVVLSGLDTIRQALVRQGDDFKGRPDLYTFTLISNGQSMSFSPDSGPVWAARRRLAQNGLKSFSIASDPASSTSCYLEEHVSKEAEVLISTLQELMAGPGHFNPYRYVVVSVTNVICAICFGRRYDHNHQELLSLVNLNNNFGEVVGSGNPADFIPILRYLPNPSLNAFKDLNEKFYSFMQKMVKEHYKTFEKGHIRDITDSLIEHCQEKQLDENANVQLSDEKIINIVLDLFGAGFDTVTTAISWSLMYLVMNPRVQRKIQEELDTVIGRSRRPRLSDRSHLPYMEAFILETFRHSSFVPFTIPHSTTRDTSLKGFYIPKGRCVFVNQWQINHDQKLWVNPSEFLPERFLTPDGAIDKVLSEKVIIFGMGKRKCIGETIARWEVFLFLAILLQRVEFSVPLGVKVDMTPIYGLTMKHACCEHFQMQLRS
# Sequence (P05177 whole entry): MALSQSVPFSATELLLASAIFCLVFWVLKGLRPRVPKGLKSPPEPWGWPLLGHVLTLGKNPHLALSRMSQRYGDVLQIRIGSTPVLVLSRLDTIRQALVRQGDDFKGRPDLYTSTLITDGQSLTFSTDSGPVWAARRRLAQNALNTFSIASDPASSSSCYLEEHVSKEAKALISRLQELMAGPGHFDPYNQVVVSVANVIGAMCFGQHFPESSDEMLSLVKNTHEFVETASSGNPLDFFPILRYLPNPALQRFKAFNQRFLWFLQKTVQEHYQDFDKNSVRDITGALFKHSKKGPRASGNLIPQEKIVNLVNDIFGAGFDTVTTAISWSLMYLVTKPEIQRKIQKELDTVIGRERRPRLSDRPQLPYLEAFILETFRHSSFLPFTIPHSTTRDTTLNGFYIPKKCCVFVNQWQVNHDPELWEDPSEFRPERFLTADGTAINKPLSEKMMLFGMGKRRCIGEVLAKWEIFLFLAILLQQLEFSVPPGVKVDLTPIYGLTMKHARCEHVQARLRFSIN
# test description: Inhibition of CYP1A in human liver microsomes by LC-MS/MS analysis
# Assay type: ADME, Microsome
pIC50: −log10 of the molar value.
endpoint: pIC50

[
  {
    "compound": "CCN1C[C@H]2CCCC[C@@]2(c2ccc(Cl)c(Cl)c2)C1",
    "assay target": "CYP1A (Homo sapiens, UniProt P04798+P05177)",
    "endpoint": "pIC50",
    "recorded measurement": "< 4.60"
  },
  {
    "compound": "CN1C[C@H]2CCCC[C@@]2(c2ccc(Cl)c(Cl)c2)C1 (single isomer, unassigned)",
    "assay target": "CYP1A (Homo sapiens, UniProt P04798+P05177)",
    "endpoint": "pIC50",
    "recorded measurement": "< 4.60"
  },
  {
    "compound": "CN1C[C@H]2CCC[C@@]2(c2ccc(Cl)c(Cl)c2)C1",
    "assay target": "CYP1A (Homo sapiens, UniProt P04798+P05177)",
    "endpoint": "pIC50",
    "recorded measurement": "< 4.60"
  }
]
